system: 519858-162-T-J1-PDC complex spheroid viability; experiment: Anticancer human tumor 519858-162-T-J1-PDC patient-derived colon adenocarcinoma cell line growth inhibition [GQUAD]; details: second compound 0.1 µM; first compound 0.1 µM; hits give low values;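 note: spheroids exposed to compounds for 7 days; 100% = DMSO vehicle control viability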
property_label: viability, T/C (%)

- compound: "CC(C)n1c(=O)n(C)c2cnc3cc(F)c(-c4ccc(OCCCN5CCCCC5)nc4)cc3c21 + Cc1cnc(CNC(=O)c2c(=O)c3ccc(N4CCCN(C)CC4)nc3n3c2sc2ccccc23)cn1"
  tgt: "519858-162-T-J1-PDC complex spheroid viability"
  unit_abbrev: "%"
  quantitative_result: 47.8
- compound: "O=C(c1cc(Cc2n[nH]c(=O)c3ccccc23)ccc1F)N1CCN(C(=O)C2CC2)CC1 + Cc1cnc(CNC(=O)c2c(=O)c3ccc(N4CCCN(C)CC4)nc3n3c2sc2ccccc23)cn1"
  tgt: "519858-162-T-J1-PDC complex spheroid viability"
  unit_abbrev: "%"
  quantitative_result: 65.7
- compound: "O=C(NO)c1cnc(N2CCN(S(=O)(=O)c3ccc4ccccc4c3)CC2)nc1 + Cc1cnc(CNC(=O)c2c(=O)c3ccc(N4CCCN(C)CC4)nc3n3c2sc2ccccc23)cn1"
  tgt: "519858-162-T-J1-PDC complex spheroid viability"
  unit_abbrev: "%"
  quantitative_result: 104
